# MEASURED_ON: human D2L receptor (Homo sapiens)
# Construct: purchased Euroscreen; host or cells: CHO-K1
# Sequence (P14416 whole entry): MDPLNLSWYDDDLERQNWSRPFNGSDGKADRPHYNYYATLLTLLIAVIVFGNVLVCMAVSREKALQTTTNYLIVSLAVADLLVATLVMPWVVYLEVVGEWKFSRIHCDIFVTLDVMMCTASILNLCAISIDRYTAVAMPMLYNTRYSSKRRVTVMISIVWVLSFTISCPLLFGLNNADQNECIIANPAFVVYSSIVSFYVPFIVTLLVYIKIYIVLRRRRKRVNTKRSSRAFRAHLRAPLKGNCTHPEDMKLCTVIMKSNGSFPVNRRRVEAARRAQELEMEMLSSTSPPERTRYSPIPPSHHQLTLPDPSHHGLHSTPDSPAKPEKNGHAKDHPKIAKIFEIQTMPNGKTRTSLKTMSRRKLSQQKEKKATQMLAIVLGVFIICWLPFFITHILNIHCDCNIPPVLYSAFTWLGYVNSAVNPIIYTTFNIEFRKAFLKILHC
# EXPERIMENT_DESCRIPTION: Radioligand competition binding and kinetics, CHO-K1 membranes
MEASURE_NAME: IC50 (nM)
One number for each entry, in nM.

Known value: human D2L receptor (Homo sapiens) IC50 of the molecule CN1C[C@H](C(=O)N[C@]2(C)O[C@@]3(O)[C@@H]4CCCN4C(=O)[C@H](Cc4ccccc4)N3C2=O)C[C@@H]2c3cccc4[nH]cc(c34)C[C@H]21 [DHE, Dihydroergotamine] equals 231

====

# MEASURED_ON: human 5-HT1A receptor (Homo sapiens, UniProt P08908)
# Construct: purchased Euroscreen; host or cells: CHO-K1
# Sequence (P08908 whole entry): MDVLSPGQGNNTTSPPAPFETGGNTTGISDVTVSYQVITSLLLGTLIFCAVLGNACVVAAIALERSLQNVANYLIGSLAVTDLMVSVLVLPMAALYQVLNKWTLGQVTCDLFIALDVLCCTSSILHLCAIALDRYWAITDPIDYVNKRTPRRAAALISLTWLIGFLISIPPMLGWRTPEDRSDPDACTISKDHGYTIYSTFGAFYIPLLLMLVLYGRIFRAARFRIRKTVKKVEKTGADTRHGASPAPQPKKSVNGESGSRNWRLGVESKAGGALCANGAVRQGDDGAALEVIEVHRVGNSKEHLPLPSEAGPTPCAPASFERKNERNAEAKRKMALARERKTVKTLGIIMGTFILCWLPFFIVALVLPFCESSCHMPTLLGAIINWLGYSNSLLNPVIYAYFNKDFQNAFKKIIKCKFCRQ
# EXPERIMENT_DESCRIPTION: Radioligand competition binding and kinetics, CHO-K1 membranes
MEASURE_NAME: pIC50
Answers are plain numbers, as −log10 of the molar value.

get_value(item= CN1C[C@H](C(=O)N[C@]2(C)O[C@@]3(O)[C@@H]4CCCN4C(=O)[C@H](Cc4ccccc4)N3C2=O)C[C@@H]2c3cccc4[nH]cc(c34)C[C@H]21 [DHE, Dihydroergotamine] , readout=pIC50) returns 9.57

====

# MEASURED_ON: human Serotonin 5-HT3 receptor (Homo sapiens, UniProt P46098)
# Construct: expressed in transfected cells; host or cells: CHO-K1 or HEK-293, coexpressing mitochondrial apoaequorin
# Sequence (P46098 24-478): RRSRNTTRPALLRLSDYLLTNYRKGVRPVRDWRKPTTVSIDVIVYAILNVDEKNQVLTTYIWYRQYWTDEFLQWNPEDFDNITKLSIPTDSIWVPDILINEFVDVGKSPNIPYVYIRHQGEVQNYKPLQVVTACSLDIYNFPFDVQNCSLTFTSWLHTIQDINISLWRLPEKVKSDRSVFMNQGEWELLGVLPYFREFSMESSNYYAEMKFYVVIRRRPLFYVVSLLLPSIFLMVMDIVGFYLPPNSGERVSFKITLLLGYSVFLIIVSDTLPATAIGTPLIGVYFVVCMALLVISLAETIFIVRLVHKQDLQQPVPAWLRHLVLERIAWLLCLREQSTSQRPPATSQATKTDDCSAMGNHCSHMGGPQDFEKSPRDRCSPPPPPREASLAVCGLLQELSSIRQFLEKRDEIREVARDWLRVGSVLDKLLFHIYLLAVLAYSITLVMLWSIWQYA
# EXPERIMENT_DESCRIPTION: Aequorin functional assay (agonist/antagonist)
# Assay type: cell-based
MEASURE_NAME: IC50 (µM)
Give bare numbers, in µM.

Known value: human Serotonin 5-HT3 receptor (Homo sapiens, UniProt P46098) IC50 of the compound CN1C[C@H](C(=O)N[C@]2(C)O[C@@]3(O)[C@@H]4CCCN4C(=O)[C@H](Cc4ccccc4)N3C2=O)C[C@@H]2c3cccc4[nH]cc(c34)C[C@H]21 [DHE, Dihydroergotamine] equals 3.85

====

# MEASURED_ON: human 5-HT1D receptor (Homo sapiens)
# Construct: purchased Euroscreen; host or cells: CHO-K1
# Sequence (P28221 whole entry): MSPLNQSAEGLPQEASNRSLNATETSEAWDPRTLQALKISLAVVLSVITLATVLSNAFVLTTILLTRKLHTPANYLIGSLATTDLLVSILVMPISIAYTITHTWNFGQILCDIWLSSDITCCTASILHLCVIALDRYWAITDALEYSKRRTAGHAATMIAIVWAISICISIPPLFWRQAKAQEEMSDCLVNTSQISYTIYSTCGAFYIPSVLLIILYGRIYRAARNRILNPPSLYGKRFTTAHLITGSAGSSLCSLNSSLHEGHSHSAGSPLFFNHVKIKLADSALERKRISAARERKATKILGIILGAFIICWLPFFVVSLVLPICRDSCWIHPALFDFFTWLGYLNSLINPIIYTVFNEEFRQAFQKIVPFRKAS
# EXPERIMENT_DESCRIPTION: Radioligand competition binding and kinetics, CHO-K1 membranes
MEASURE_NAME: IC50 (nM)
Answers are plain numbers, in nM.

get_value(item= CN1C[C@H](C(=O)N[C@]2(C)O[C@@]3(O)[C@@H]4CCCN4C(=O)[C@H](Cc4ccccc4)N3C2=O)C[C@@H]2c3cccc4[nH]cc(c34)C[C@H]21 [DHE, Dihydroergotamine] , readout=IC50) returns 0.65

====

# MEASURED_ON: human 5-HT1B receptor (Homo sapiens, UniProt P28222)
# Construct: purchased Euroscreen; host or cells: CHO-K1
# Sequence (P28222 whole entry): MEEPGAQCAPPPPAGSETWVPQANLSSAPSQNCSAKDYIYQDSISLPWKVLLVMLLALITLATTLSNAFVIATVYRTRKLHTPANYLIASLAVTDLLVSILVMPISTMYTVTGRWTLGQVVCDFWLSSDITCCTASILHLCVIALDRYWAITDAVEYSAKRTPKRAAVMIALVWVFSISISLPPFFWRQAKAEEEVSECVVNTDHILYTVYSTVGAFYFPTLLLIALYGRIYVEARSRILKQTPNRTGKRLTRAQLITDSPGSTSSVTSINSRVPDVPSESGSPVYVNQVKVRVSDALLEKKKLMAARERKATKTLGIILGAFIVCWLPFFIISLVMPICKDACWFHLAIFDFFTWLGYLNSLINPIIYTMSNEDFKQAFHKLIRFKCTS
# EXPERIMENT_DESCRIPTION: Radioligand competition binding and kinetics, CHO-K1 membranes
MEASURE_NAME: pIC50
One number for each entry, as −log10 of the molar value.

get_value(item= CN1C[C@H](C(=O)N[C@]2(C)O[C@@]3(O)[C@@H]4CCCN4C(=O)[C@H](Cc4ccccc4)N3C2=O)C[C@@H]2c3cccc4[nH]cc(c34)C[C@H]21 [DHE, Dihydroergotamine] , readout=pIC50) returns 9.26
